B1: Homeobox protein cut-like 1, residues 548 to 629; numbered along this chain, P39880 (parent)
chain: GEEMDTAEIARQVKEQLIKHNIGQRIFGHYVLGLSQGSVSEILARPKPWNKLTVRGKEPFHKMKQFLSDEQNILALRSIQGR

Variants of: B1
experimentalDetails: abundance fitness (aPCA) (normalised: wild type 0, dead -1); higher = more abundant; growth selection in yeast, the domain comes from the species named
conditionInfo: Homo sapiens
Entries and their abundance fitness
measurementName: abundance fitness

>>> recordedmeasurement("GEEMDTAEIARQVKEQLIKHNIGQRIFGHYVLGLSQGSVSEILARPKPWNKLTVRGKEPFHKMKQFLSGEQNILALRSIQGR [D69G]")
-0.267
>>> recordedmeasurement("GEEMDTAEIARQVKEQLIKHNIGQRIFGHYVLGLSQGSVSEILARPKPWNKLTVRGKEPFHKWKQFLSDEQNILALRSIQGR [M63W]")
-1.02
>>> recordedmeasurement("GEEMDTAEIARQVKEQLIKHNIGQRIFGHYVLGLSQMSVSEILARPKPWNKLTVRGKEPFHKMKQFLSDEQNILALRSIQGR [G37M]")
0.002
>>> recordedmeasurement("GEEMDTAEIARQVKEQLIKHNIGQYIFGHYVLGLSQGSVSEILARPKPWNKLTVRGKEPFHKMKQFLSDEQNILALRSIQGR [R25Y]")
-0.003
>>> recordedmeasurement("GEEMDTAEIARQVKEQLIKHNIGQRIFGHYVLGLSQGSVSEVLARPKPWNKLTVRGKEPFHKMKQFLSDEQNILALRSIQGR [I42V]")
-0.104
>>> recordedmeasurement("GEEMDTAEIARQVKEQLIKHNIGHRIFGHYVLGLSQGSVSEILARPKPWNKLTVRGKEPFHKMKQFLSDEQNILALRSIQGR [Q24H]")
0.021
>>> recordedmeasurement("GEEMDTAEIARQVKEQLIKHNIGQRIFGHYVLGLSQQSVSEILARPKPWNKLTVRGKEPFHKMKQFLSDEQNILALRSIQGR [G37Q]")
0.092
>>> recordedmeasurement("GEEMDTAEIARQVKEQLIKHNIGQRIFGHYVLGKSQGSVSEILARPKPWNKLTVRGKEPFHKMKQFLSDEQNILALRSIQGR [L34K]")
-0.346
>>> recordedmeasurement("GEEMDTAEIARQVKEQLIKHNIGQRIFGHYVLGLSQGSVSEILARPKPWEKLTVRGKEPFHKMKQFLSDEQNILALRSIQGR [N50E]")
-0.071
>>> recordedmeasurement("GEEMDTAEIARQVKEQLIKHNIGQRIRGHYVLGLSQGSVSEILARPKPWNKLTVRGKEPFHKMKQFLSDEQNILALRSIQGR [F27R]")
-0.884
>>> recordedmeasurement("GEEMDTAEIARQVKEQLIKHNIGQRIFGHYVLGLSQGSVSEILARPYPWNKLTVRGKEPFHKMKQFLSDEQNILALRSIQGR [K47Y]")
-0.432
>>> recordedmeasurement("GEEMDTAEIARQVKEQLIKHNIGQRIFGHYVLGLSQGSVSEILARPKPWNKLTVRGKEPFHKMKQFASDEQNILALRSIQGR [L67A]")
-0.736
>>> recordedmeasurement("GEEMDTAEIARQVKEQLIKHNIGQRIFGHYVLGLSQGSVNEILARPKPWNKLTVRGKEPFHKMKQFLSDEQNILALRSIQGR [S40N]")
-0.018
>>> recordedmeasurement("GEEMDTAEIARQVKEQLIKHNIGQIIFGHYVLGLSQGSVSEILARPKPWNKLTVRGKEPFHKMKQFLSDEQNILALRSIQGR [R25I]")
-0.122
>>> recordedmeasurement("GEEMDTAEIARQVKEQLIKHNIGQRIFGHYVLGLSQGSVSEIQARPKPWNKLTVRGKEPFHKMKQFLSDEQNILALRSIQGR [L43Q]")
-0.807
>>> recordedmeasurement("GEEMDTAEIARQVKEQLMKHNIGQRIFGHYVLGLSQGSVSEILARPKPWNKLTVRGKEPFHKMKQFLSDEQNILALRSIQGR [I18M]")
-0.005
>>> recordedmeasurement("GEEMDTAEIARQVKEQLIKHNIGQRIFGHYVLGLSQGSHSEILARPKPWNKLTVRGKEPFHKMKQFLSDEQNILALRSIQGR [V39H]")
-0.844
